Listed here: items and their measured EC50.
Test system: IL-6
Assay: Inhibition of IL-6 in LPS-stimulated human monocyte cells (THP-1), HTRF
Type: cell-based
Details: Homo sapiens; THP-1 cells, LPS 500 ng/mL, IL-6 by HTRF

O=C(Cc1ccccc1)Nc1cncc(-c2ccc3[nH]nc(-c4nc5ccncc5[nH]4)c3c2)c1 ... > 10 µM
Nc1cncc(-c2ccc3[nH]nc(-c4nc5ccncc5[nH]4)c3c2)c1 ... > 10 µM

Problem: // returns reported EC50 for input O=C(Nc1cncc(-c2ccc3[nH]nc(-c4nc5ccncc5[nH]4)c3c2)c1)c1ccccc1
Result: > 10 µM
